# Assay notes: Biotransformation of naphthalene by mouse lung microsomes
# Format: in vitro ADME
# Setup conditions: mouse, lung microsomes, read-out: Km, N to 1R, 2S NO
# Excerpt: […] For the lung, the biotransformation of naphthalene was modeled as the sum of two separate reactions, each producing a different enantiomer, with the Vmax's summing to the value calculated as described above.
Metric name: Km (µM)
Give the number; µM is assumed, so skip it.

Fill in the blank: the reported Km of c1ccc2ccccc2c1 [naphthalene] is ____. 100

----------
# Assay notes: Biotransformation of naphthalene by rat lung microsomes
# Type: in vitro ADME
# Setup conditions: read-out: Km, N to 1S, 2R NO
Metric name: Km (µM)
Quick reminder: number only, in µM, skip the unit.

State the recorded Km for this entry: c1ccc2ccccc2c1 [naphthalene] 1540

----------
# Assay notes: Biotransformation of naphthalene by mouse liver microsomes
# Format: in vitro ADME
# Setup conditions: mouse, liver microsomes; read-out: Km, N to 1R, 2S NO
Metric name: Km (µM)
Just the number in µM, nothing appended.

I'd like to know its Km. The molecule in question is c1ccc2ccccc2c1 [naphthalene] 307

----------
# Assay notes: Biotransformation of naphthalene by rat lung microsomes
# Type: in vitro ADME
# Setup conditions: read-out: Km, N to 1R, 2S NO
Metric name: Km

Quick check: Km of `c1ccc2ccccc2c1` ? 400 µM

----------
# Assay notes: Biotransformation of naphthalene by mouse lung microsomes
# Format: in vitro ADME
# Setup conditions: mouse, lung microsomes, read-out: Km, N to 1S, 2R NO
Metric name: Km (µM)
Use µM as the unit, but write only the number.

Look up Km for this compound: c1ccc2ccccc2c1 [naphthalene] 400
